Just for reference, the supplement of paper PMC6555819 is where these values come from.

- Tested on: PPARa:RXRa (NR concentration 270 nM, RXRa partner concentration 90 nM)
- method_description: PBM binding z-score (relative to random genomic background probes); higher = stronger binding; sequences stand for … in GC…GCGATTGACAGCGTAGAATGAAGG
Please use Fulfilled whenever PBM binding z-score is not below 4, and Not fulfilled whenever it is.

# bool: PBM binding z-score of `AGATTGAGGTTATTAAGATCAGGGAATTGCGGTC` >= 4
Not fulfilled

Is reported PBM binding z-score greater than or equal to 4 here: `TAGCCTAGGTCACGCGGGCCAGTATAGTGTCGGC`
Fulfilled

Reported PBM binding z-score at or above 4? `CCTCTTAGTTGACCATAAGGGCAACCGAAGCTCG`
Not fulfilled

Kindly determine if PBM binding z-score recorded for `CGAACTAGGTCATTGACAGGACAGTGACTAGTAA` is above or exactly 4.
Fulfilled

Hi team, for `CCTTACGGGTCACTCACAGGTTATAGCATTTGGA` , is the recorded PBM binding z-score at or above 4?
Fulfilled
